- Assay system: Δ61–90/C460W/E583M rat olfactory CNG channel (Rattus norvegicus, UniProt Q00195, C460W/DEL61-90/E583M)
- Assay comment: Excised inside-out patch recording, Δ61–90/C460W/E583M CNG channel
- Type: biochemical
- Condition set: read-out: K1/2 (concentration that gives half-maximal current); Δ61-90/C460W/E583M channel, +50 mV, mean ± SD of three experiments
Measured quantity: pEC50
pEC50 is a log-scale quantity: -log10 of the concentration expressed in molar.

Which pEC50 value belongs to `Nc1nc2c(ncn2[C@@H]2O[C@@H]3COP(=O)(O)O[C@H]3[C@H]2O)c(=O)[nH]1` ?
4.44
